Values compiled from patent US20130261178A1.

Biological target: human beta2-adrenoceptor (Homo sapiens, UniProt P07550)
Construct: expressed in transfected cells; host or cells: CHO cells
Sequence (P07550 whole entry): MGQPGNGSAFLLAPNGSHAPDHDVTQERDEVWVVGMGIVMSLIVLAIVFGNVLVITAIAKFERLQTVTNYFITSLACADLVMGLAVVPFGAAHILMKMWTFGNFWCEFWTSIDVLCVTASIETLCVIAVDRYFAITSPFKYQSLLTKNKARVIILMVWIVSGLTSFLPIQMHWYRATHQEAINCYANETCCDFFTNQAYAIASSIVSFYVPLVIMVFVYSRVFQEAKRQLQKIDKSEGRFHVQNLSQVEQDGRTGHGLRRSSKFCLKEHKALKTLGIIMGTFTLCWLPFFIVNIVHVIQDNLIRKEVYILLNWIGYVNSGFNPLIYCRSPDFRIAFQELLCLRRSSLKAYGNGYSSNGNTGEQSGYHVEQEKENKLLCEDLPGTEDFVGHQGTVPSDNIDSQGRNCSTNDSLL
Experiment: 3H-CGP12177 whole-cell binding, CHO cells expressing human beta2-adrenoceptor
Details: 3H-CGP 12177 whole cell binding, log KD, mean ± s.e.mean, read-out: Beta 2 Log KD (converted)
Where a name gives a salt, the structure may show the parent alone.
Measurement name: Kd (nM)
Give bare numbers, in nM.

>  <Compound>
O=C(NCCNCC(O)COc1ccc(OCCOC2CCCC2)cc1)c1cccc(F)c1 (stereo not drawn) [54h]

>  <Kd (nM)>
550

$$$$
>  <Compound>
CCOCCOc1ccc(OCC(O)CNCCNC(=O)Cc2ccccc2O)cc1 (stereo not drawn) [46g]

>  <Kd (nM)>
537

$$$$
>  <Compound>
Nc1ccccc1C(=O)NCCNCC(O)COc1ccc(OCCOC2CCCC2)cc1 (stereo not drawn) [62b]

>  <Kd (nM)>
309

$$$$
>  <Compound>
O=C(NCCNCC(O)COc1ccc(OCCOC2CC2)cc1)Nc1ccc(O)cc1 (stereo not drawn) [46p]

>  <Kd (nM)>
25700

$$$$

Batch: Kd for all items listed.
1. Nc1cccc(C(=O)NCCNCC(O)COc2ccc(OCCOC3CCCC3)cc2)c1 (stereo not drawn) [62c]
2. O=C(Cc1ccc(O)cc1)NCCNCC(O)COc1ccc(OCCOC2CCCC2)cc1 (stereo not drawn) [62v]
3. O=C(NCCNCC(O)COc1ccc(OCCOC2CCCC2)cc1)Nc1cccc(C(=O)O)c1 (stereo not drawn) [47aa, hydrochloride]
4. Nc1ccc(C(=O)NCCNCC(O)COc2ccc(OCCOC3CCCC3)cc2)cc1 (stereo not drawn) [62d]
5. O=C(Cc1ccc(Cl)cc1)NCCNCC(O)COc1ccc(OCCOC2CCCC2)cc1 (stereo not drawn) [62l]

Output line:
1: 4470; 2: 251; 3: 43700; 4: 5500; 5: 162

---

Answer each item with its documented Kd.
Target: human beta2-adrenoceptor (Homo sapiens)
Construct: expressed in transfected cells; host or cells: CHO cells
Assay: 3H-CGP12177 whole-cell binding, CHO cells expressing human beta2-adrenoceptor
Conditions: 3H-CGP 12177 whole cell binding, log KD, mean ± s.e.mean, read-out: Beta 2 Log KD (converted)
Counter-ions that a name gives are not always drawn.
Numbers only, in µM.

Consider the worked cases shown below.
>  <Compound>
O=C(NCCNCC(O)COc1ccc(OCCOC2CC2)cc1)Nc1cccc(Cl)c1 (stereo not shown) [46o]

>  <Readout units>
µM

>  <Kd>
2.95

$$$$
>  <Compound>
CCCOCCOc1ccc(OCC(O)CNCCNC(=O)Nc2cccc(Cl)c2)cc1 (stereo not shown) [46m]

>  <Readout units>
µM

>  <Kd>
3.72

$$$$
>  <Compound>
O=C(NCCNCC(O)COc1ccc(OCCOC2CCCC2)cc1)Nc1ccc(C(=O)O)cc1 (stereo not shown) [47bb, hydrochloride]

>  <Readout units>
µM

>  <Kd>
43.7

$$$$

Batch: Kd for all items listed.
1. O=C(NCCNC[C@H](O)COc1ccc(OCCOC2CCCC2)cc1)Nc1cccc(Cl)c1 [(S)-47l]
2. COc1cc(C(=O)NCCNCC(O)COc2ccc(OCCOC3CCCC3)cc2)ccc1O (stereo not shown) [62f]
3. CCOCCOc1ccc(OCC(O)CNCCNC(=O)Cc2cccc(O)c2)cc1 (stereo not shown) [46h]
4. O=C(Cc1ccccc1F)NCCNCC(O)COc1ccc(OCCOC2CCCC2)cc1 (stereo not shown) [62g]

Output line:
1.15
1.41
0.257
0.0977

Batch: Kd for all items listed.
1. NC(=O)c1ccccc1OCCNCC(O)COc1ccc(OCCOC2CCCC2)cc1 (stereo not shown) [67a]
2. O=C(Cc1ccc(F)cc1)NCCNCC(O)COc1ccc(OCCOC2CCCC2)cc1 (stereo not shown) [62i]
3. O=C(Cc1ccccc1C(F)(F)F)NCCNCC(O)COc1ccc(OCCOC2CCCC2)cc1 (stereo not shown) [62m]
4. CC(C)OCCOc1ccc(OCC(O)CNCCNC(=O)Nc2cccc(Cl)c2)cc1 (stereo not shown) [46k]
5. O=C(Cc1cccc(C(F)(F)F)c1)NCCNCC(O)COc1ccc(OCCOC2CCCC2)cc1 (stereo not shown) [62n]
6. OC(CNCCOc1ccccc1-c1ccccc1)COc1ccc(OCCOC2CCCC2)cc1 (stereo not shown) [65c]
7. O=C(NCCNCC(O)COc1ccc(OCCOC2CCCC2)cc1)c1ccc(F)cc1 (stereo not shown) [54i]

Output line:
1. 1.05
2. 0.178
3. 0.126
4. 5.13
5. 0.2
6. 0.741
7. 0.363

Batch: Kd for all items listed.
1. O=C(Nc1ccccc1)OCCNCC(O)COc1ccc(OCCOC2CCCC2)cc1 (stereo not shown) [compound 51]
2. CC(C)OCCOc1ccc(OCC(O)CNCCNC(=O)Nc2ccc(O)cc2)cc1 (stereo not shown) [46l]

Output line:
1: 0.468; 2: 15.5
